FYI, the data here is from PubChem BioAssay (NCI).

System: OVCAR-8 ovarian
Assay: NCI tumour cell line growth inhibition, 48 h; in the data active = GI50 below about 0.43 µM; inactive = the rest
Log the outcome using a class from active, inactive

>  <compound>
O=C1C=CC(=O)c2cc3cc(CO)ccc3cc21

>  <answer label>
inactive

$$$$

// switching to the query compound
Query string: So what was the verdict on O=C(/C=C/c1ccc(Cl)cc1)c1ccc(Nc2nc(Nc3ccc(F)cc3)nc(Nc3ccc(F)cc3)n2)cc1 in this test?
Result string: inactive

* * *

System: HS 578T breast
Experiment: NCI tumour cell line growth inhibition, 48 h
measurement name: TGI (µM)
Field: numeric (µM). Do not append units.

>  <compound>
COc1cc2c(cc1I)-c1c(cc(OC)c(OC)c1OC)CC[C@@H]2NC(C)=O

>  <TGI / µM>
0.593

$$$$
>  <compound>
Cc1ccc(O)c(C(c2ccc(C(c3cc(C)ccc3O)c3cc(C)ccc3O)cc2)c2cc(C)ccc2O)c1

>  <TGI / µM>
4.7

$$$$

Proceeding to the next compound to report its TGI.
Query string: TGI lookup needed for CN(CCCCCl)P(=O)(OCC1=CC(=O)c2ccccc2C1=O)OC[C@H]1O[C@@H](n2cc(F)c(=O)[nH]c2=O)C[C@@H]1O (some centres undefined) , thanks.
Result string: 0.603

* * *

Test system: SR leukemia
Experiment: NCI tumour cell line growth inhibition, 48 h
measurement name: TGI (µM)
Respond numerically; units are µM and should not be typed.

Query string: Give SR leukemia TGI for NCCCOc1cc2ccccc2cc1C(=O)NCCOc1nc2ccccc2cc1C(=O)Nc1ccc(Cl)cc1O
Result string: 2.11

Query string: Another compound to look at: COc1cc([C@@H]2c3cc4c(cc3[C@@H](Nc3ccc(N=Cc5ccc(C(=O)O[C@@H](C(=O)O[C@H]6C[C@@]7(O)[C@@H](OC(=O)c8ccccc8)[C@@H]8[C@]9(OC(C)=O)CO[C@@H]9C[C@H](O)[C@@]8(C)C(=O)[C@H](OC(C)=O)C(=C6C)C7(C)C)[C@@H](NC(=O)c6ccccc6)c6ccccc6)cc5)cc3)[C@H]3COC(=O)[C@H]23)OCO4)cc(OC)c1O
Result string: 0.35

Query string: Can you check CC(C)OC(=O)C1=C2c3ncccc3C(=O)N2[C@@H](Cl)[C@H](Cl)[C@H]1Cl next?
Result string: 93.8

Query string: Another compound to check: CC1=C2O[C@]3(O)C=C2C(=C(O)C1=O)[C@@H]1O[C@H](CC[C@H](C)/C=C(\C)C[C@@H](C)C[C@@H]3C)[C@H](C)[C@H](O)[C@H]1C
Result string: 4.18

* * *

Test system: A549 NSCLC
Experiment: NCI tumour cell line growth inhibition, 48 h
measurement name: TGI

Use the examples below as a reference point.
>  <compound>
O=C(c1ccccc1)N1CCN2CCN=C(c3ccccc3)C21c1ccccc1 (stereo not given)

>  <measurement name>
TGI

>  <test result>
> 100 µM

$$$$
>  <compound>
CO[C@@H]1C[C@H](OC(N)=O)[C@@H]2C=C[C@@H]3/C=C(C)/C=C/[C@@H](C)[C@H]([C@H](C)[C@H](O)[C@@H](C)NC(C)=O)OC(=O)/C=C/C=C(C)\C=C\[C@]3(C)[C@@H]2C1

>  <measurement name>
TGI

>  <test result>
10 µM

$$$$
>  <compound>
COc1cc(-c2ccc(-c3ccc(C(=N)N)cc3)s2)cc(OC)c1OC

>  <measurement name>
TGI

>  <test result>
14.7 µM

$$$$
>  <compound>
CCOC(=O)C(/C=N\C(=S)Nc1c(CC)cccc1C(C)(C)C)=C(/O)c1ccccc1

>  <measurement name>
TGI

>  <test result>
> 100 µM

$$$$
>  <compound>
COc1cc2c(cc1I)-c1c(cc(OC)c(OC)c1OC)CC[C@@H]2NC(C)=O

>  <measurement name>
TGI

>  <test result>
> 51.9 µM

$$$$

Query string: Which TGI is reported for this compound? Cc1cnc(-n2c(C)nc3cc(Cl)ccc3c2=O)s1
Result string: > 100 µM

Query string: Same question for O=C(Nc1ccc(OCc2nnc(-c3ccc(Cl)cc3)o2)c(F)c1)c1ccc(Cl)c(C(F)(F)F)c1 please.
Result string: > 50 µM

Query string: # iterate: CC12CP(=O)(c3ccccc3)CC1c1ccccc1C2c1ccccc1 (stereo not given)
Result string: 36.2 µM

Query string: // query: O=S1(=O)OCCOS(=O)(=O)C1(Br)Cc1ccccc1
Result string: > 100 µM

Query string: Now give it for O=c1c(Cc2c(O)ccc3ccccc23)nnc2sc(-c3nn4c(=O)c(Cc5c(O)ccc6ccccc56)nnc4s3)nn12 too.
Result string: > 100 µM

Query string: Can you handle Cc1cc(=O)oc2cc(OCc3nc4ccccc4c(=O)n3-c3ccccc3)ccc12 next?
Result string: > 100 µM

Query string: One more compound: CCOC(=O)C1=C(Cl)c2cccnc2C1=O
Result string: > 100 µM
